Catalogue of TGI readings, one per entry.
# Tested on: HL-60
# method.summary: Antiproliferative activity against human HL60 cells after 72 hrs by MTT assay
# Format: functional
# measurement.parameters: HL-60, 72 h
measurement.name: TGI (nM)

compound="C=C1C(=O)O[C@@H]2C3O[C@]3(C)CC/C=C(\\C)CC[C@@H]12 (some centres undefined)" assayed_target=HL-60 numeric_value=1360
compound=C/C1=C/CC[C@@]2(C)O[C@@H]2[C@H]2OC(=O)[C@@H](CN3CCCCC3)[C@@H]2CC1 assayed_target=HL-60 numeric_value=3990
compound=C/C1=C/CC[C@@]2(C)O[C@@H]2[C@H]2OC(=O)[C@@H](CN3CC[C@@H](F)C3)[C@@H]2CC1 assayed_target=HL-60 numeric_value=1180
compound=C/C1=C/CC[C@@]2(C)O[C@@H]2[C@H]2OC(=O)[C@@H](CN3CC[C@H](F)C3)[C@@H]2CC1 assayed_target=HL-60 numeric_value=46200

---

# Tested on: HL-60
# method.summary: Antiproliferative activity against human HL60 cells after 72 hrs by MTT assay
# Format: functional
# measurement.parameters: HL-60, 72 h
Catalogue of TGI readings, one per entry.
measurement.name: TGI

molecule="C/C1=C/CC[C@@]2(C)O[C@@H]2[C@H]2OC(=O)[C@@H](CN3CCCC(C(F)(F)F)C3)[C@@H]2CC1 (some centres not stated)" assayed_target=HL-60 result="7.29 µM"
molecule=C/C1=C/CC[C@@]2(C)O[C@@H]2[C@H]2OC(=O)[C@@H](CN3CCC(F)CC3)[C@@H]2CC1 assayed_target=HL-60 result="5.7 µM"
molecule=C/C1=C/CC[C@@]2(C)O[C@@H]2[C@H]2OC(=O)[C@@H](CN3CCC(C(F)(F)F)CC3)[C@@H]2CC1 assayed_target=HL-60 result="2.14 µM"
molecule=C/C1=C/CC[C@@]2(C)O[C@@H]2[C@H]2OC(=O)[C@@H](CN3CCC(F)(F)C3)[C@@H]2CC1 assayed_target=HL-60 result="18.3 µM"
molecule="C/C1=C/CC[C@@]2(C)O[C@@H]2[C@H]2OC(=O)[C@@H](CN3CCCC(F)C3)[C@@H]2CC1 (some centres not stated)" assayed_target=HL-60 result="12.2 µM"
molecule=C/C1=C\CC[C@@]2(C)O[C@@H]2[C@H]2OC(=O)[C@@H](CN3CCC(F)(F)CC3)[C@@H]2CC1 assayed_target=HL-60 result="5.58 µM"
molecule=C/C1=C/CC[C@@]2(C)O[C@@H]2[C@H]2OC(=O)[C@@H](CN3CCCC3)[C@@H]2CC1 assayed_target=HL-60 result="1.74 µM"

---

# Tested on: HL-60
# method.summary: Antiproliferative activity against human HL60 cells after 72 hrs by MTT assay
# Assay type: functional
# measurement.parameters: HL-60, 72 h
Catalogue of LC50 (concentration killing 50% of cells) readings, one per entry.
measurement.name: LC50 (concentration killing 50% of cells) (µM)

compound=C/C1=C/CC[C@@]2(C)O[C@@H]2[C@H]2OC(=O)[C@@H](CN3CCCCC3)[C@@H]2CC1 numeric_value=10.1
compound="C/C1=C/CC[C@@]2(C)O[C@@H]2[C@H]2OC(=O)[C@@H](CN3CCCC(C(F)(F)F)C3)[C@@H]2CC1 (stereo partly drawn)" numeric_value=21.3
compound=C/C1=C/CC[C@@]2(C)O[C@@H]2[C@H]2OC(=O)[C@@H](CN3CCC(C(F)(F)F)CC3)[C@@H]2CC1 numeric_value=3.11
compound=C/C1=C/CC[C@@]2(C)O[C@@H]2[C@H]2OC(=O)[C@@H](CN3CCC(F)CC3)[C@@H]2CC1 numeric_value=8.07
compound=C/C1=C\CC[C@@]2(C)O[C@@H]2[C@H]2OC(=O)[C@@H](CN3CCC(F)(F)CC3)[C@@H]2CC1 numeric_value=17.7
compound=C/C1=C/CC[C@@]2(C)O[C@@H]2[C@H]2OC(=O)[C@@H](CN3CCCC3)[C@@H]2CC1 numeric_value=2.54
compound=C/C1=C/CC[C@@]2(C)O[C@@H]2[C@H]2OC(=O)[C@@H](CN3CCC(F)(F)C3)[C@@H]2CC1 numeric_value=23.8
compound=C/C1=C/CC[C@@]2(C)O[C@@H]2[C@H]2OC(=O)[C@@H](CN3CC[C@@H](F)C3)[C@@H]2CC1 numeric_value=1.66
